# testedOn: serotonin 2 (5-HT2) receptor (Rattus norvegicus, UniProt P14842)
# Sequence (P14842 whole entry): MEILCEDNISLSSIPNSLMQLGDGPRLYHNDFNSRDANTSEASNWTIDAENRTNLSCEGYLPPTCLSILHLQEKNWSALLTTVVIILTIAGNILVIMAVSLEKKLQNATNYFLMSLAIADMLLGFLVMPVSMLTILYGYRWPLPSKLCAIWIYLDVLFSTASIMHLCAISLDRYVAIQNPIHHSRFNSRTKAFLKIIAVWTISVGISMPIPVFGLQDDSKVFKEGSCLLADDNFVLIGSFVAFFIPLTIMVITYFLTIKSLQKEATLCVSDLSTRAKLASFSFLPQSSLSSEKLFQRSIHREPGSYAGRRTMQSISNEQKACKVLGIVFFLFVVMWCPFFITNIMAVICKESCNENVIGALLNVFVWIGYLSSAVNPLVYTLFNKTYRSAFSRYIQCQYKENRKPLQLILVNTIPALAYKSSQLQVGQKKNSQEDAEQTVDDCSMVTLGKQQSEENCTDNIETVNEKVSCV
# procedureDetails: 5-HT2 receptor affinity, 3H-Ketanserin binding test (Experiment 2)

{"compound": "CN1CC(CNC(=O)Cc2ccccc2)CC2c3cc(C(C)(C)C)cc4[nH]cc(c34)CC21 (stereo not shown)", "IC50": "0.7 µM"}
{"compound": "CN1C[C@H](CN)C[C@@H]2c3cc(C(C)(C)C)cc4[nH]cc(c34)C[C@H]21", "IC50": "0.7 µM"}
{"compound": "CN1C[C@H](CNC(=O)c2ccncc2)C[C@@H]2c3cc(C(C)(C)C)cc4[nH]cc(c34)C[C@H]21", "IC50": "2.1 µM"}
{"compound": "CN1C[C@H](CNC(=O)C(C)(C)C)C[C@@H]2c3cc(C(C)(C)C)cc4[nH]cc(c34)C[C@H]21", "IC50": "1.2 µM"}
{"compound": "CN1C[C@H](CNC(=O)c2cncc(Br)c2)C[C@@H]2c3cc(C(C)(C)C)cc4[nH]cc(c34)C[C@H]21", "IC50": "1.1 µM"}
{"compound": "CN1C[C@H](CO)C[C@@H]2c3cc(C(C)(C)C)cc4[nH]cc(c34)C[C@H]21", "IC50": "1.1 µM"}
{"compound": "CN1C[C@H](CNC(=O)C2CCCCC2)C[C@@H]2c3cc(C(C)(C)C)cc4[nH]cc(c34)C[C@H]21", "IC50": "1.1 µM"}
{"compound": "CN1C[C@H](CNC(=O)Nc2ccccc2)C[C@@H]2c3cc(C(C)(C)C)cc4[nH]cc(c34)C[C@H]21", "IC50": "6.15 µM"}
{"compound": "COC(=O)[C@@H]1C[C@@H]2c3cc(C(C)(C)C)cc4[nH]cc(c34)C[C@H]2N(C)C1", "IC50": "1.87 µM"}
{"compound": "CCOC(=O)NC[C@@H]1C[C@@H]2c3cc(C(C)(C)C)cc4[nH]cc(c34)C[C@H]2N(C)C1", "IC50": "3.48 µM"}

Hey, just so you know, these numbers are from patent US5430031A.
